test target: T1, corticotropin-releasing hormone (CRH) peptide (human and mouse, UniProt P01143 145-185 (rat entry), not fully specified)
T1 peptide: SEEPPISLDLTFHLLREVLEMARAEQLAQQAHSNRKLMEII
assay notes: cell-based or functional assay
measure: hCRHR1-Luc 0.5 nM CRH IC50 (nM)
// units = nM; emit number, no label

Some solved cases for reference:
binder	unit symbol	hCRHR1-Luc 0.5 nM CRH IC50
PR302309-12 (antibody, human IgG1, kappa, V domains shown) VH: QIQLVQSGSELKKPGASVKVSCKASGYTFTNYGMNWVRQAPGQGLEWMGWINTYTGEPIYTDDFKGRFVFSLDTSVSTAYLQISSLKAEDTAVYYCSRSTMITTGGVFAYWGQGTLVTVSS VL: DVVMTQTPLSSPVTLGQPASISCRSSQTIVHSDGNTYLEWYQQRPGQPPRLLIYKVSNRFSGVPDRFSGSGAGTDFTLKISRVEAEDLGVYYCFQGSHVPWTFGGGTKVEIKR	nM	4.47
PR302309-7 (antibody, human IgG1, kappa, V domains shown) VH: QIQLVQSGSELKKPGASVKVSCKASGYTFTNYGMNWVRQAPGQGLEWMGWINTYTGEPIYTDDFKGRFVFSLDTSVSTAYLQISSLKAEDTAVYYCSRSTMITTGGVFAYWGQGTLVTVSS VL: DVVMTQSPLSLPVTLGQPASISCRSSQTIVHSDGNTYLEWFQQRPGQSPRRLIYKVSNRFSGVPDRFSGSGSGTDFTLKISRVEAEDVGVYYCFQGSHVPWTFGGGTKVEIKR	nM	6.38
PR302309-5 (antibody, human IgG1, kappa, V domains shown) VH: QIQLVQSGPELKKPGETVKISCKASGYTFTNYGMNWVKQAPGKVLKWMGWINTYTGEPIYTDDFKGRFAFSLETSASTAYLQINNLKNEDTATYFCSRSTMITTGGVFAYWGQGTLVTVSA VL: DIVMTQTPLSSPVTLGQPASISCRSSQTIVHSDGNTYLEWLQQRPGQPPRLLIYKVSNRFSGVPDRFSGSGAGTDFTLKISRVEAEDVGVYYCFQGSHVPWTFGGGTKVEIKR	nM	0.454
PR302309-15 (antibody, human IgG1, kappa, V domains shown) VH: QVQLVQSGAEVKKPGASVKVSCKASGYTFTNYGMNWVRQAPGQRLEWMGWINTYTGEPIYTDDFKGRVTITRDTSASTAYMELSSLRSEDTAVYYCARSTMITTGGVFAYWGQGTLVTVSS VL: DVLMAQTPLSLPVSLGDQASISCRSSQTIVHSDGNTYLEWYLQKPGQSPKLLIYKVSNRFSGVPDRFSGSGSGTDFTLKISRVEAEDLGVYYCFQGSHVPWTFGGGTKLEIKR	nM	10.5

Would you kindly look at the next entry?
Q) Name the reported hCRHR1-Luc 0.5 nM CRH IC50 value associated with the binder PR302309-20 (antibody, human IgG1, kappa, V domains shown) VH: QIQLVQSGAEVKKPGASVKVSCKASGYTFTNYGMNWVRQAPGQRLEWMGWINTYTGEPIYTDDFKGRVTITLDTSASTAYMELSSLRSEDTAVYYCSRSTMITTGGVFAYWGQGTLVTVSS VL: DVVMTQTPLSLSVTPGQPASISCRSSQTIVHSDGNTYLEWYLQKPGQSPQLLIYKVSNRFSGVPDRFSGSGSGTDFTLKISRVEAEDLGVYYCFQGSHVPWTFGGGTKVEIKR
A) 3.07
